Ref: patent US20100196516A1

assay: CO release kinetics: CO released into medium by CORMs (gas chromatography); assay type: physicochemical; settings: media utilized (MS, LB), time scale of the experiment
observed-property: release of CO gas upon dissolution in the medium (in words)

{"columns": ["compound-structure-string", "reported-measurement"],
 "data": [
  ["O=[C]=[Mn]([Br])(=[C]=O)(=[C]=O)(=[C]=O)=[C]=O", "rather small amounts"],
  ["CC[N+](CC)(CC)CC.O=[C]=[Mo-]([Br])(=[C]=O)(=[C]=O)(=[C]=O)=[C]=O", "rather small amounts"]
]}
